The measurements presented in this section are drawn from the NIST ThermoML archive (doi:10.1016/j.fluid.2016.09.021).

# ASSAY_CONDITIONS: 448 K; 30000 kPa; Liquid; Vibrating tube method
Listed compounds paired with reported mass density
Answer with a number only, understood to be in kg/m3.

Worked cases, mass density given:
1. CCCCCCCCCCCC [dodecane] ... 674
2. c1ccccc1 [benzene] ... 754.2
3. Cc1ccccc1 [toluene] ... 762.6

input: Quickly give me recorded mass density for CCCCCCC [heptane]
output: 600.3

###

Listed compounds paired with reported mass density
# ASSAY_CONDITIONS: 468 K; 5000 kPa; Liquid; Vibrating tube method
Answer with a number only, understood to be in kg/m3.

1) Cc1ccccc1 ... 698.2

input: Quickly give me recorded mass density for CCCCCCC
output: 518.6

input: Quickly give me recorded mass density for CCCCCCCCCCCC
output: 624.1

input: Quickly give me recorded mass density for c1ccccc1
output: 677.8

###

# ASSAY_CONDITIONS: 373 K; 30000 kPa; Liquid; Vibrating tube method
PROPERTY_MEASURED: mass density (kg/m3)
Answer with a number only, understood to be in kg/m3.

Worked cases, mass density given:
1. CCCCCCCCCCCC ... 718.7
2. c1ccccc1 ... 823.1
3. CCCCCCC ... 654.1

Moving on to the next compound.
input: Quickly give me recorded mass density for Cc1ccccc1
output: 823.5

###

Listed molecules paired with reported mass density
# ASSAY_CONDITIONS: 313 K; 5000 kPa; Liquid; Vibrating tube method
Answer with a number only, understood to be in kg/m3.

1) CCCCCCC ... 674.8

input: Quickly give me recorded mass density for c1ccccc1
output: 859.6

input: Quickly give me recorded mass density for CCCCCCCCCCCC
output: 739.9

input: Quickly give me recorded mass density for Cc1ccccc1
output: 854.6

###

Listed compounds paired with reported mass density
# ASSAY_CONDITIONS: 333 K; 20000 kPa; Liquid; Vibrating tube method
Answer with a number only, understood to be in kg/m3.

1) CCCCCCC [heptane] ... 673.8
2) CCCCCCCCCCCC [dodecane] ... 736.6
3) c1ccccc1 [benzene] ... 851.8

input: Quickly give me recorded mass density for Cc1ccccc1 [toluene]
output: 848.2

###

# ASSAY_CONDITIONS: 333 K; 40000 kPa; Liquid; Vibrating tube method
Listed compounds paired with reported mass density
Answer with a number only, understood to be in kg/m3.

1. CCCCCCC ... 689.5

input: Quickly give me recorded mass density for c1ccccc1
output: 867

input: Quickly give me recorded mass density for Cc1ccccc1
output: 863

input: Quickly give me recorded mass density for CCCCCCCCCCCC
output: 749.6

###

# ASSAY_CONDITIONS: 433 K; 40000 kPa; Liquid; Vibrating tube method
PROPERTY_MEASURED: mass density (kg/m3)
Answer with a number only, understood to be in kg/m3.

1. c1ccccc1 [benzene] ... 780.3
2. Cc1ccccc1 [toluene] ... 786.5
3. CCCCCCC [heptane] ... 624.3

input: Quickly give me recorded mass density for CCCCCCCCCCCC [dodecane]
output: 692.1

###

# ASSAY_CONDITIONS: 413 K; 20000 kPa; Liquid; Vibrating tube method
PROPERTY_MEASURED: mass density (kg/m3)
Answer with a number only, understood to be in kg/m3.

1. CCCCCCC ... 611.9
2. c1ccccc1 ... 773.2
3. CCCCCCCCCCCC ... 685.1

input: Quickly give me recorded mass density for Cc1ccccc1
output: 779.5

###

# ASSAY_CONDITIONS: 373 K; 5000 kPa; Liquid; Vibrating tube method
Numbers after ± are expanded uncertainties.
PROPERTY_MEASURED: mass density

1. Cc1ccccc1 ... 797.8 ± 2.1 kg/m3

input: Quickly give me recorded mass density for CCCCCCCCCCCC
output: 696.3 ± 2.1 kg/m3

input: Quickly give me recorded mass density for c1ccccc1
output: 794.7 ± 2.1 kg/m3

input: Quickly give me recorded mass density for CCCCCCC
output: 622 ± 2 kg/m3

###

# ASSAY_CONDITIONS: 448 K; 20000 kPa; Liquid; Vibrating tube method
Listed compounds paired with reported mass density
Answer with a number only, understood to be in kg/m3.

Worked cases, mass density given:
1) CCCCCCCCCCCC ... 662.4
2) c1ccccc1 ... 738
3) CCCCCCC ... 583

Moving on to the next compound.
input: Quickly give me recorded mass density for Cc1ccccc1
output: 748.5

###

# ASSAY_CONDITIONS: 393 K; 30000 kPa; Liquid; Vibrating tube method
PROPERTY_MEASURED: mass density (kg/m3)
Answer with a number only, understood to be in kg/m3.

1) Cc1ccccc1 [toluene] ... 807.5

input: Quickly give me recorded mass density for CCCCCCCCCCCC [dodecane]
output: 706.6

input: Quickly give me recorded mass density for c1ccccc1 [benzene]
output: 804.5

input: Quickly give me recorded mass density for CCCCCCC [heptane]
output: 640.2

###

# ASSAY_CONDITIONS: 393 K; 20000 kPa; Liquid; Vibrating tube method
± gives the expanded uncertainty stated by the source.
Listed compounds paired with reported mass density
Could you kindly put the unit after your number?

Worked cases, mass density given:
1. c1ccccc1 ... 793 ± 2.1 kg/m3
2. Cc1ccccc1 ... 797 ± 2.1 kg/m3
3. CCCCCCCCCCCC ... 697.8 ± 2.1 kg/m3

Moving on to the next compound.
input: Quickly give me recorded mass density for CCCCCCC
output: 627.8 ± 2.1 kg/m3

###

Listed molecules paired with reported mass density
# ASSAY_CONDITIONS: 353 K; 40000 kPa; Liquid; Vibrating tube method
Answer with a number only, understood to be in kg/m3.

1. CCCCCCCCCCCC [dodecane] ... 737.7
2. c1ccccc1 [benzene] ... 849.5
3. Cc1ccccc1 [toluene] ... 847.6

Moving on to the next molecule.
input: Quickly give me recorded mass density for CCCCCCC [heptane]
output: 676.7

###

Listed molecules paired with reported mass density
# ASSAY_CONDITIONS: 413 K; 40000 kPa; Liquid; Vibrating tube method
Numbers after ± are expanded uncertainties.

1. Cc1ccccc1 [toluene] ... 801.6 ± 2.1 kg/m3
2. CCCCCCCCCCCC [dodecane] ... 703.6 ± 2.1 kg/m3
3. CCCCCCC [heptane] ... 637.6 ± 2.1 kg/m3

Moving on to the next molecule.
input: Quickly give me recorded mass density for c1ccccc1 [benzene]
output: 797.5 ± 2.1 kg/m3

###

# ASSAY_CONDITIONS: 293 K; 30000 kPa; Liquid; Vibrating tube method
Listed compounds paired with reported mass density
Answer with a number only, understood to be in kg/m3.

Worked cases, mass density given:
1) Cc1ccccc1 [toluene] ... 889.3
2) CCCCCCCCCCCC [dodecane] ... 769

input: Quickly give me recorded mass density for c1ccccc1 [benzene]
output: 896.9

input: Quickly give me recorded mass density for CCCCCCC [heptane]
output: 708.7

###

# ASSAY_CONDITIONS: 353 K; 5000 kPa; Liquid; Vibrating tube method
PROPERTY_MEASURED: mass density (kg/m3)
Answer with a number only, understood to be in kg/m3.

Worked cases, mass density given:
1) CCCCCCC ... 640.4
2) Cc1ccccc1 ... 817.3
3) CCCCCCCCCCCC ... 710.9

Moving on to the next compound.
input: Quickly give me recorded mass density for c1ccccc1
output: 816.5

###

# ASSAY_CONDITIONS: 293 K; 20000 kPa; Liquid; Vibrating tube method
± gives the expanded uncertainty stated by the source.
PROPERTY_MEASURED: mass density
Could you kindly put the unit after your number?

1. CCCCCCCCCCCC ... 763.5 ± 2.1 kg/m3
2. Cc1ccccc1 ... 883.4 ± 2 kg/m3
3. c1ccccc1 ... 890.4 ± 2 kg/m3

Moving on to the next molecule.
input: Quickly give me recorded mass density for CCCCCCC
output: 701.8 ± 2 kg/m3

###

# ASSAY_CONDITIONS: 448 K; 5000 kPa; Liquid; Vibrating tube method
Numbers after ± are expanded uncertainties.
PROPERTY_MEASURED: mass density
Could you kindly put the unit after your number?

input: Quickly give me recorded mass density for CCCCCCCCCCCC [dodecane]
output: 640 ± 2.2 kg/m3

input: Quickly give me recorded mass density for Cc1ccccc1 [toluene]
output: 721.1 ± 2.2 kg/m3

input: Quickly give me recorded mass density for CCCCCCC [heptane]
output: 543.6 ± 2 kg/m3

input: Quickly give me recorded mass density for c1ccccc1 [benzene]
output: 704.8 ± 2.3 kg/m3

###

Listed compounds paired with reported mass density
# ASSAY_CONDITIONS: 373 K; 20000 kPa; Liquid; Vibrating tube method
Answer with a number only, understood to be in kg/m3.

1) CCCCCCCCCCCC ... 710.8

input: Quickly give me recorded mass density for CCCCCCC
output: 643.2

input: Quickly give me recorded mass density for c1ccccc1
output: 812.9

input: Quickly give me recorded mass density for Cc1ccccc1
output: 814
